- ASSAY_SYSTEM: IL-17A/A (Homo sapiens, UniProt Q16552)
- Sequence (Q16552 24-155): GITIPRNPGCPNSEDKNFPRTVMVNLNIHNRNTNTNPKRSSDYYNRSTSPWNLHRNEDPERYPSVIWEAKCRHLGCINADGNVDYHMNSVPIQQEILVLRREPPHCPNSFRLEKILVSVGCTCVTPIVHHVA
- ASSAY_EXPLANATION: HEK-Blue IL-17A/A inhibition assay (SEAP reporter)
- CONDITION_DETAILS: HEK-Blue cells (HEK 293 expressing IL-17RA, IL-17RC, Act1); IL-17A/A stimulation; 20 hours; SEAP read at A630; 4-parameter fit
pIC50: −log10 of the molar value.
Give measured pIC50 for each item. Keep answers brief.

Solved cases (3 shown):
MOLECULE | VALUE
Cc1cc(NC(=O)[C@@H](NC(=O)c2ccnn2C)C2CCC(F)(F)CC2)c(F)cc1C(C)C(=O)N(C)CC(F)(F)F (some centres unmarked) | 6.00 to 7.00
Cc1cc(NC(=O)[C@@H](NC(=O)c2ccnn2C(C)C)C(C2CC2)C2CC2)c(F)cc1C(C)C(=O)N1CC(O)CC1C(F)(F)F (single isomer, unassigned) [Compound 199] | > 7.00
CCc1nonc1C(=O)N[C@H](C(=O)Nc1cc(C)c(C(C)C(=O)NCC(F)(F)F)cc1F)C1CCC(F)(F)CC1 (some centres unmarked) | 6.00 to 7.00

Please give pIC50, item by item, for the list that follows.
1. CC(C)n1nccc1C(=O)N[C@H](C(=O)Nc1ccc([C@H](C)C(=O)N2CCNCC2C(F)(F)F)cc1F)C(C1CC1)C1CC1 (some centres unmarked)
2. COc1cc(NC(=O)[C@@H](NC(=O)c2ccnn2C(C)C)C(C2CC2)C2CC2)c(F)cc1C(C)C(=O)N(C)CC(F)(F)F (some centres unmarked)
3. CC1CN(C(=O)[C@@H](C)c2ccc(NC(=O)[C@@H](NC(=O)c3ccnn3C(C)C)C(C3CC3)C3CC3)c(F)c2)C(C(F)(F)F)CO1 (some centres unmarked)

Outgoing:
1: < 6.00; 2: > 7.00; 3: 6.00 to 7.00

Would you be so kind as to report pIC50 for each listed record?
1. CC(CN1CCOCC1)n1nccc1C(=O)N[C@H](C(=O)Nc1ccc([C@H](C)C(=O)NCC(F)(F)F)cc1F)C(C1CC1)C1CC1 (single isomer, unassigned) [Compound 93]
2. Cc1cc(NC(=O)[C@@H](NC(=O)c2nonc2C2CC2)C(C2CC2)C2CC2)c(F)cc1C(C)C(=O)NCC(F)(F)F (some centres unmarked)
3. CC(C)n1nccc1C(=O)N[C@H](C(=O)Nc1ccc([C@H](C)C(=O)NC(C2CC2)C(F)(F)F)cc1F)C(C1CC1)C1CC1 (some centres unmarked)
4. CCn1nccc1C(=O)N[C@H](C(=O)Nc1ccc(CC(=O)N(C)CC(F)(F)F)cc1F)C1CCCCCC1
5. CC(C)n1nccc1C(=O)N[C@H](C(=O)Nc1ccc([C@H](C)C(=O)NC(CNC(=O)OC(C)(C)C)C(F)(F)F)cc1F)C(C1CC1)C1CC1 (some centres unmarked)
6. CC(C)n1nccc1C(=O)N[C@H](C(=O)Nc1ccc([C@H](C)C(=O)N2CCOCCC2C(F)(F)F)cc1F)C(C1CC1)C1CC1 (some centres unmarked)
7. COc1cc(NC(=O)[C@@H](NC(=O)c2ccnn2C)C(C2CC2)C2CC2)c(F)cc1C(C)C(=O)N(C)CC(F)(F)F (some centres unmarked)

Outgoing:
["6.00 to 7.00", "> 7.00", "6.00 to 7.00", "6.00 to 7.00", "6.00 to 7.00", "6.00 to 7.00", "> 7.00"]

Provide reported pIC50 for each item, in the same order as listed.
1. CCc1cc(NC(=O)[C@@H](NC(=O)c2ccnn2C(C)C)C(C2CC2)C2CC2)c(F)cc1[C@H](C)C(=O)NCC(F)(F)F
2. CC(C)n1nccc1C(=O)N[C@H](C(=O)Nc1ccc([C@H](C)C(=O)NC2(C(F)(F)F)CN(C(=O)OC(C)(C)C)C2)cc1F)C(C1CC1)C1CC1
3. CC(C)n1nccc1C(=O)N[C@H](C(=O)Nc1ccc([C@H](C)C(=O)NC(CO)C(F)(F)F)cc1F)C(C1CC1)C1CC1 (single isomer, unassigned) [Compound 29]
4. CC(C(=O)NCC(F)(F)F)c1cc(F)c(NC(=O)[C@@H](NC(=O)c2ccnn2C(C)C)C(C2CC2)C2CC2)cc1C1CC1 (single isomer, unassigned) [Compound 127]
5. CC(C(=O)N(CC(N)=O)CC(F)(F)F)c1ccc(NC(=O)[C@@H](NC(=O)c2ccnn2C(C)C)C(C2CC2)C2CC2)c(F)c1 (single isomer, unassigned) [Compound 138]

Outgoing:
1. > 7.00
2. < 6.00
3. > 7.00
4. > 7.00
5. < 6.00

The measured values listed here are drawn from patent US20240376056A1.
